Just for reference, PubChem BioAssay AID485317 is where these values come from.

Could you please report measured inhibition for the items listed next?
Target: FAD-linked sulfhydryl oxidase ALR (Homo sapiens) (UniProt P55789)
Sequence (P55789 whole entry, looked up): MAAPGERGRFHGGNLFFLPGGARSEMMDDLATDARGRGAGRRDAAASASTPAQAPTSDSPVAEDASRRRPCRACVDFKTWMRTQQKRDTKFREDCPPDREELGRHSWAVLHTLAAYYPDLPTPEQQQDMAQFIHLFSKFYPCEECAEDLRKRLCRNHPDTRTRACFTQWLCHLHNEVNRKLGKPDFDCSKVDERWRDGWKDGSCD
Experiment: ALR-catalysed DTT oxidation blockers – biochemical, H2O2 detection, HRP-luminol luminescence, single point, primary screen (AID 485317)
Settings: purified ALR, active compounds read high, concentration not given here
In all, about 290,000 compounds went through this assay and about 11,000 (3.8%) were called active. Shown is part of a subset that was picked to be rich in actives.
Give bare numbers, in %.

molecule	inhibition (%)
CC(=O)NC(CC(=O)Nc1ccc(S(=O)(=O)N2CCOCC2)cc1)c1ccccc1 (stereo not given)	-5.33

Please give inhibition for each item listed below.
1. COc1ccccc1N1CCN(CC(=O)Nc2ccnn2C2CCCC2)CC1
2. Cc1cccc(N(CC(O)CN(C)C)S(=O)(=O)c2ccccc2)c1 (stereo not given)

[21.7, -4.54]

// for each molecule in input: emit inhibition
1. C/C(N)=C(/C#N)C(=O)COC(=O)CNS(=O)(=O)c1ccc(C)cc1
2. COc1ccc(CNC(=O)C2(CC3CC(c4ccccc4)=NO3)CCN(C(=O)c3cccc(O)c3)CC2)cc1 (stereo not given)

1. -12.8
2. -2.44

###

Target: FAD-linked sulfhydryl oxidase ALR (Homo sapiens)
Assay: ALR-catalysed DTT oxidation blockers – biochemical, H2O2 detection, HRP-luminol luminescence, single point, primary screen (AID 485317)
Conditions: purified ALR, active compounds read high, concentration not given here
Among all 290,000 compounds or so, about 11,000 (3.8%) were called active. The list comes from a sample in which actives are over-represented; it also holds close analogues and randomly drawn compounds.
value-kind: inhibition (%)
Give bare numbers, in %.

Some solved cases for reference:
compound	assay-result
CCC(=O)c1cc(F)ccc1OCC(=O)Nc1ccc2c(c1)OCCO2	-1.15
Cc1cc(=O)[nH]c(SCC(N)=O)c1C#N	-1.22
CCOC(=O)C1CCCN(C(=O)c2ccc(C)c(S(=O)(=O)N3CCCCC3)c2)C1 (centres undefined)	-0.131
Cc1ccc(S(=O)(=O)N(C)c2ccc(OCC(=O)OCC(=O)N(CC#N)c3ccccc3)cc2)cc1	-18.6
CC1(C)O[C@@H]2[C@H](O1)[C@@H](COS(=O)(=O)O)O[C@H]2n1cnc2c(=O)[nH]cnc21	-3.87
CC12CCC(=O)N1C(C(=O)NCCN1C(=O)S/C(=C\c3ccccc3F)C1=O)CS2 (centres undefined)	-5.02
COc1ccc(CNC(=O)C2CCCC2)cc1	-0.518
CCOc1ccc(NS(=O)(=O)c2ccc(C(=O)NCC(c3ccccc3OC)N3CCCC3)cc2)cc1 (centres undefined)	0.447
C/C(CC(=O)Nc1cccc(C(F)(F)F)c1)=N\NC(=O)C(=O)NCC(C)C	-10.3
Cc1cc2c(cc1C)NC(c1ccccn1)C1=C(CC(C)(C)CC1=O)N2 (centres undefined)	99.2

Each compound below has a reported value. Please supply its inhibition.
1. CCOc1ccc(Br)cc1S(=O)(=O)N1CCC(C(=O)O)CC1
2. COc1ccc(OC)c(/C=C/C(=O)c2ccc3c(c2)OCO3)c1
3. CC1CN(C(=O)c2cc(COc3c(F)cccc3F)on2)CCN1C (centres undefined)
4. C/C(CC(=O)Nc1ccc(Cl)cc1)=N\NC(=O)C(=O)NCCO
5. Cc1cc(C(C)(C)C)cc(C)c1N
6. Cc1c(C(=O)Nc2ccccn2)oc2ccc(Br)cc12
7. COc1ccc(S(=O)(=O)N2CCCCC2)cc1NC(=O)COc1ccccc1

1. -9.17
2. 3.84
3. -3.41
4. 96.1
5. -3.27
6. 1.89
7. -4.75

Kindly give each listed record's inhibition.
1. CC[n+]1cc(C)ccc1/C=C/c1ccc(N(C)C)cc1
2. O=C(O)Cc1ccc(NCc2ccccc2Cl)cc1
3. Cc1ccc(Oc2ccc(N)cc2)cc1
4. CN(C)c1ccc(/C=N\S(=O)(=O)c2ccccc2)cc1
5. CC(=O)Oc1cccc(N2C(=O)CC(Nc3ccc(N4CCOCC4)cc3)C2=O)c1 (centres undefined)

1: 99.4; 2: 97.2; 3: 98.9; 4: 0.19; 5: 97.2

Give inhibition for all compounds that follow.
1. CCCCCCc1cc2cc(-c3nnc(-c4ccccc4)o3)c(=O)oc2cc1O
2. CCC(c1nnc(SCC(=O)NNC(=O)c2ccccc2)n1Cc1ccccc1)N(C)C (centres undefined)
3. Cc1ccc(C)c(NC(=O)COC(=O)c2nn(C)c(=O)c3ccccc23)c1

1.08
-1.21
-9.61
